targetUnderTest: MC4 (Homo sapiens)
Sequence (P32245 whole entry): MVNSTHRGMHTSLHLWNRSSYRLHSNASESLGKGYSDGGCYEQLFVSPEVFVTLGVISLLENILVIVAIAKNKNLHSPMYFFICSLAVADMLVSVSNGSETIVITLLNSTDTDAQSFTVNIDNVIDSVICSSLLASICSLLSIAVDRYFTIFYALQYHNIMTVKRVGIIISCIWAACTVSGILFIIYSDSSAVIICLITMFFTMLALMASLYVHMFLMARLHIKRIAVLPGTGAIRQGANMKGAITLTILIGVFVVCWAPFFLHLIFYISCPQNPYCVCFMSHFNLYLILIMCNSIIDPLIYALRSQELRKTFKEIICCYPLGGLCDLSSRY
measurementDescription: Affinity for the MC4-receptors, binding assay with I125-NDP-αMSH as ligand
conditions: read-out: Affinity for MC-receptors Ki MC4
resultType: Ki (nM)

>>> recordednumber("CSc1c(Cl)cccc1C=NNC(=N)N.Cl [Compound 1:1, hydrochloride]")
600

----------
targetUnderTest: MC3 (Homo sapiens)
Sequence (P41968 whole entry): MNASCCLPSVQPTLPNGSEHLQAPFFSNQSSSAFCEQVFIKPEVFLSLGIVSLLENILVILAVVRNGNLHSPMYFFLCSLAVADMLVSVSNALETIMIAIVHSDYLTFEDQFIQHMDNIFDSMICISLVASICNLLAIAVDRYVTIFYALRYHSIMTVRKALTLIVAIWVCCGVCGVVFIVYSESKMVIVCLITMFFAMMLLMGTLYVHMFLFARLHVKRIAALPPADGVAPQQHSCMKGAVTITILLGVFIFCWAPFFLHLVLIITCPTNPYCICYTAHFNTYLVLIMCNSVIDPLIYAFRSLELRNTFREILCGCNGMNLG
resultType: Ki

>>> result("CSc1c(Cl)cccc1C=NNC(=N)N.Cl [Compound 1:1, hydrochloride]")
"19.7 µM"

----------
targetUnderTest: UniProt P33032
Sequence (P33032 whole entry): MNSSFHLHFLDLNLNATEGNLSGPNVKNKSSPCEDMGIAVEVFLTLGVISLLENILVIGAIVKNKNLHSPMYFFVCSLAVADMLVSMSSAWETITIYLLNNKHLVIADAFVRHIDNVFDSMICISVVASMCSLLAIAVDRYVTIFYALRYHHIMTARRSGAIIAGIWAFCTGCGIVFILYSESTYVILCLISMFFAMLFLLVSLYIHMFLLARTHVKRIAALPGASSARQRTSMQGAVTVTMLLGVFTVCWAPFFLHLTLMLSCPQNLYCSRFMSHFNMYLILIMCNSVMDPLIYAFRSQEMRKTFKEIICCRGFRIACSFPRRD
pKi: −log10 of the molar value.
resultType: pKi

>>> recordednumber("CSc1c(Cl)cccc1C=NNC(=N)N.Cl [Compound 1:1, hydrochloride]")
4.71

Reference for the values: patent US8372878B2
